test system: Escherichia coli TOP10; assay: shrunken log2 fold change of peptide-encoding DNA abundance (4.5 h post-induction vs induction); higher = less antimicrobial activity (less host growth inhibition); details: time post-induction: 4.5 h; library: site-saturation at positions 5, 18, 19, 20;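 note: peptides expressed intracellularly from a pBAD plasmid library in pooled LB shake-flask culture, induced with 0.3% L-arabinose, DNA abundance read by NGS, three biological replicates, DESeq2 with apeglm shrinkage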
Note to self: values exactly at -0.1 are true. So shrunken log2 fold change at or above -0.1 is true, below is false.

Would you please look over these solved cases?
Sequence code: RRIRIRPPRLPRPRPRPPCDPRP
Group: false
--
Sequence code: RRIRSRPPRLPRPRPRPKEVPRP
Group: true
--
Sequence code: RRIRERPPRLPRPRPRPIREPRP
Group: true

Check this sequence for shrunken log2 fold change at or above -0.1: RRIRIRPPRLPRPRPRPNHWPRP
true

Check this sequence for shrunken log2 fold change at or above -0.1: RRIRTRPPRLPRPRPRPGLLPRP
true

Check this sequence for shrunken log2 fold change at or above -0.1: RRIRARPPRLPRPRPRPPAKPRP
true

Check this sequence for shrunken log2 fold change at or above -0.1: RRIRKRPPRLPRPRPRPQIRPRP
true

Check this sequence for shrunken log2 fold change at or above -0.1: RRIRSRPPRLPRPRPRPAAPPRP
true

Check this sequence for shrunken log2 fold change at or above -0.1: RRIRFRPPRLPRPRPRPFDWPRP
true

Check this sequence for shrunken log2 fold change at or above -0.1: RRIRDRPPRLPRPRPRPTDKPRP
false

Check this sequence for shrunken log2 fold change at or above -0.1: RRIRSRPPRLPRPRPRPHTNPRP
false

Check this sequence for shrunken log2 fold change at or above -0.1: RRIRKRPPRLPRPRPRPEANPRP
true

Check this sequence for shrunken log2 fold change at or above -0.1: RRIRCRPPRLPRPRPRPTAGPRP
true

Check this sequence for shrunken log2 fold change at or above -0.1: RRIRGRPPRLPRPRPRPSHHPRP
false

Check this sequence for shrunken log2 fold change at or above -0.1: RRIRNRPPRLPRPRPRPSLSPRP
false

Check this sequence for shrunken log2 fold change at or above -0.1: RRIRSRPPRLPRPRPRPNWVPRP
false

Check this sequence for shrunken log2 fold change at or above -0.1: RRIRDRPPRLPRPRPRPYQCPRP
true

Check this sequence for shrunken log2 fold change at or above -0.1: RRIRLRPPRLPRPRPRPCAVPRP
true

Check this sequence for shrunken log2 fold change at or above -0.1: RRIRHRPPRLPRPRPRPNLLPRP
false

Check this sequence for shrunken log2 fold change at or above -0.1: RRIRERPPRLPRPRPRPWGQPRP
true

Check this sequence for shrunken log2 fold change at or above -0.1: RRIRHRPPRLPRPRPRPPYCPRP
true
